- procedure summary: yeast display, Sf9 membrane polyspecificity reagent, FACS + sequencing; frameworks hold sequencing errors
metric: polyreactivity (PSR sort gate)

Check out these entries, answers already filled in.
Lookup result for `QVQLVESGGGLVQAGGSLRLSCAASGITIPVYMGWYRQPPGKERELVASISTIGGTTYYADSVKGRFTITRDNAKNTVYLQMNRLKPEDSAVYYCAADHPWSWYDYWGQGTQVTVSW` ; measured polyreactivity (PSR sort gate): low polyreactivity

Briefly, polyreactivity (PSR sort gate) measured for `QVQLVESGGGLVQAGGSLRLSCAASGFTFWYYAMGWYRQAPGKERELVATISRGGGSTYYADSVKGRFTISRDNAKNTVYLQMNSLKPEDTAVYYCNAALTRVSRFWGGDYYYWGQGTQVTVSS` : high polyreactivity

Entry under test: `QVQLVESGGGLVQAGGSLRLSCAASHANAIGWYRQAPGKERELVAAITYRGGSTYYADSVKGRFTISRDNAKNTVYLQMNSLKPEDTAVYYCNTDVYLYVYDFGYNYWGQGTQVTVSS` . Its polyreactivity (PSR sort gate) was low polyreactivity

According to the records, this sequence `QVQLVESRGGLVQAGGSLRLSCAASGLIFGFNTMGWYRQAPGKERELVAAITSGGGSTYYADSVKGRFTISRDNAKNTVYLQMNSLKPEDTAVYYCNAGGGRWRARQWHDYWGQGTQVTVSS` displays polyreactivity (PSR sort gate) of low polyreactivity

polyreactivity (PSR sort gate) recorded for this sequence, `QVQLVESGGGLVQAGGSLRLSCAASGIISIFNVMGWYRQAPGKERELVASITGRGGSTFYADSVKGRFTISRDNAKNTDYLQLNSLIPEDTAVYYCATDTGYTYPVTGLYDYWGQGTQVTVSS` , is low polyreactivity

Reported polyreactivity (PSR sort gate) ( `QVQLVESGGGLVQAGGSLRLSCAASGRIFFRNAMGWYRQAPGKERELVAVINTGGSTNYADSVKGRFTISRDNAKNTVFLQMNSLKPEDTAVYYCAVDRASRRTYNQYGFWGQGTQVTVSS` ) = high polyreactivity

Value of polyreactivity (PSR sort gate) reported for the sequence `QVQLVESGGGLVKAGSSLRLSCAASGSIFLYNAMGWYRQAPGKERELVAVINGRGGTYYADSVKGRFTISRDNAKNTVYLQMNSLKPEDNSVYYCATGYPPSAWYDSVRFEDRDSWGQCTQVTVSS` is low polyreactivity

`QDQLVESGGGLVQAGGSLRLSCAASGRIFGYYTAMGWYRQTPAKEREMVASITKSGGSTYYSDSVKGRFTITRDNAKNTVYLQKNCLKPEDTAVYYCAAAFNRYGTTSYWYRHYYWGQGTQVTVSS` has a reported polyreactivity (PSR sort gate) of high polyreactivity

Item: `QVQLVESGGGLVQAGGSLRLSCAASGRIFRYNAMGWYRQAPGKEWELVAAIRFSGGSTYYADSVKGRFTLSRDNAKNTVYLHMNSLKPEDTAVYYCAKVYFRVQSGMDYWGQGTQVTVST` | polyreactivity (PSR sort gate): low polyreactivity

The recorded polyreactivity (PSR sort gate) for `QVQLVESGGGLVQAGGSLRLSCAASGITFVQYAMGWYRQAPGKERELVAAITSDGRTYYADSVKGRFTISRDNAKNTVYLQMNSLKREDTAVYYCAADVWRYTAYGGAYRRDYWGQGTQVTVSS` is low polyreactivity

***
Memo: `QEKLQESGSGLVQAGGSLRLSCAASGNIFQDWVMRWYRQAPGKERELVAAISPGAITYYADSVKGRFTISRDNAKNTVYLQTNSLKPEDTAVYYCAAYYIVEYLHGYWGQGTRVTVSS` , reported polyreactivity (PSR sort gate): low polyreactivity

Sample `QVQLVESGGGLVQAGGSLRLSCAASGSTFIYYTMGWYRQAPGKERELVAAINGGGGSTYYADSVKGRFTISRDNAKNTVYLQMTSLKPEDTAVYYCATDPWHRAWGYGWGYNYWGQGTQVTVSS` ; polyreactivity (PSR sort gate) observed: low polyreactivity

Field polyreactivity (PSR sort gate) (entry `QVQLVESGGGLVQAGGSLRLSCAASGNTFKVYVMGWYRQAPGKERELVAAISRRGGNTYYADSVKGRFTISRDNAKNTVYLQMNSLKPEDTAVYYCAAYRAPYYEYDYWGQGTQVTVSS` ) reads high polyreactivity

Cited source for all entries: the nanobody polyreactivity screen of Harvey et al. (2022)
